- Target or test system: BACE2 (Homo sapiens, UniProt Q9Y5Z0)
- Sequence (Q9Y5Z0 63-473 limits assumed): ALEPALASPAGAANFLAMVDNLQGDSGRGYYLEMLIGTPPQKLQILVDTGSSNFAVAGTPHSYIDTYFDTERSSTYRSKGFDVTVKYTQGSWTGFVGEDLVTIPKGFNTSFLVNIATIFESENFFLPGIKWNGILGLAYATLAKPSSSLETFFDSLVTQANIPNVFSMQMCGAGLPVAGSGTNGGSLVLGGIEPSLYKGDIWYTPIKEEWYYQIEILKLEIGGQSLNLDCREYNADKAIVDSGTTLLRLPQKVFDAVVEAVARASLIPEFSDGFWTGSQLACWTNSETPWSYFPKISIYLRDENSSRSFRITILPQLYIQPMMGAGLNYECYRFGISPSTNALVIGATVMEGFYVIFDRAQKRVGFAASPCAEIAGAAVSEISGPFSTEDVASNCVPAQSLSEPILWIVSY
Where a name gives a salt, the structure may show the parent alone.
Parameter: Kd (nM)

- C[C@@]1(c2cc(NC(=O)c3ncc(C(F)(F)F)cc3Cl)ccc2F)COCC(N)=N1: 32
- CC(C)C(=O)Nc1ccc(F)c([C@]2(C)COCC(N)=N2)c1 [Example 88, formate]: 3450
- CC1(C)OCC(N)=N[C@]1(C)c1cc(NC(=O)c2ccc(OCC(F)(F)F)cn2)ccc1F: 2100
- C[C@@]1(c2cc(NC(=O)c3ccc(F)cn3)ccc2F)COCC(N)=N1: 8
- CC1(c2cccc(NC(=O)c3cnccn3)c2)COCC(N)=N1 (racemic) [Example 25, hydrochloride]: 1220
- CC1(c2cccc(NC(=O)c3cccc(Cl)c3)c2)COCC(N)=N1 (racemic): 230
- CC1(c2cccc(NC(=O)c3ccc(Cl)s3)c2)COCC(N)=N1 (racemic): 106
